# assay_notes: First-in-human phase 1 study: plasma pharmacokinetics of Compound 1
# Assay type: in vivo
# study_conditions: both sexes, human, plasma, intravenous, 1 mg/kg, human plasma, single dose, 48 hours, Cohort 1a (1 mg/kg), noncompartmental analysis, ± SD

structure_as_smiles: CN[C@@H]1[C@@H](O)[C@@H](O[C@@H]2[C@@H](O)[C@H](O[C@H]3OC(CNCCO)=CC[C@H]3N)[C@@H](N)C[C@H]2NC(=O)[C@@H](O)CCN)OC[C@]1(C)O
result_units: mL/min/kg
clearance: 1.23

----------
# assay_notes: Pharmacokinetics of Compound 1 after single bolus IV injection in rats
# Type: in vivo, Sprague Dawley rats
# study_conditions: Sprague Dawley, rat, plasma, iv, 10 mg/kg, 10 mg/kg single bolus IV, Rat 103, read-out: MRT0-∞

compound: CN[C@@H]1[C@@H](O)[C@@H](O[C@@H]2[C@@H](O)[C@H](O[C@H]3OC(CNCCO)=CC[C@H]3N)[C@@H](N)C[C@H]2NC(=O)[C@@H](O)CCN)OC[C@]1(C)O [Compound 1]
MRT inf: 42 min

----------
# assay_notes: Pharmacokinetics of Compound 1 after single bolus IV injection in rats
# Type: in vivo, Sprague Dawley rats
# study_conditions: Sprague Dawley, rat, plasma, iv, 10 mg/kg, 10 mg/kg single bolus IV, Rat 102
measurement_label: clearance (mL/min/kg)

structure_as_smiles: CN[C@@H]1[C@@H](O)[C@@H](O[C@@H]2[C@@H](O)[C@H](O[C@H]3OC(CNCCO)=CC[C@H]3N)[C@@H](N)C[C@H]2NC(=O)[C@@H](O)CCN)OC[C@]1(C)O
measurement_label: clearance
result_units: mL/min/kg
data_value: 9.02

----------
# assay_notes: Phase 1 study 15 mg/kg/day once daily for five days: pharmacokinetics
# Assay type: in vivo
# study_conditions: plasma; human, after 5 days of once-daily IV 15 mg/kg; read-out: steady state volume of distribution

structure_as_smiles: CN[C@@H]1[C@@H](O)[C@@H](O[C@@H]2[C@@H](O)[C@H](O[C@H]3OC(CNCCO)=CC[C@H]3N)[C@@H](N)C[C@H]2NC(=O)[C@@H](O)CCN)OC[C@]1(C)O
Vd / L/kg: 0.24

----------
# study_conditions: rat, in vivo, 10 mg/kg
# Procedure: The AGs were administered to the rats according to the dose levels depicted in Table 6. The animals of Groups 11-13 were housed until day 15 even though their dosing ended on day 5, such that all animals were necropsied on the same day. Blood was collected in EDTA at days 0, 6, 11, and 15. 750 uL blood samples were collected and aliquoted into a lithium heparin tube and an EDTA tube. Clinical chemistry analysis was performed using the Idexx VETTEST 8008 system. […]

structure_as_smiles: NC[C@H]1O[C@H](O[C@H]2[C@H](O)[C@@H](O[C@H]3O[C@H](CO)[C@@H](O)[C@H](N)[C@H]3O)[C@H](N)C[C@@H]2N)[C@H](N)C[C@@H]1O
result_units: g
Body weight Day 7: 299

----------
# study_conditions: rat, in vivo, 100 mg/kg

compound: NC[C@H]1O[C@H](O[C@H]2[C@H](O)[C@@H](O[C@H]3O[C@H](CO)[C@@H](O)[C@H](N)[C@H]3O)[C@H](N)C[C@@H]2N)[C@H](N)C[C@@H]1O [Tobramycin, tobramycin]
Body weight Day 4 (g): 264
